# Test system: M. tuberculosis H37Rv growth inhibition
# assay-text: M. tuberculosis H37Rv growth inhibitors, H37Rv strain (AID 1626)
Give measured IC50 for each item. Keep answers brief.

Quick one: IC50 for CCCSc1ccc(C(=O)Nc2ccc(Cl)cc2)cn1 ?
27.9 µM

Quick one: IC50 for c1ccc(CN2CCC(N=C3NN=C(c4ccc5c(c4)OCCO5)CS3)CC2)cc1 ?
18.2 µM

Quick one: IC50 for O=Cc1ccc2oc3nc4n(c(=O)c3c(=O)c2c1)CCCS4 ?
0.441 µM

Quick one: IC50 for CCOc1ccc(CN(C)C(=O)CCl)cc1 ?
26.7 µM

Quick one: IC50 for O=C(OCC(=O)c1c[nH]c2ccccc12)c1ccc([N+](=O)[O-])s1 ?
1.21 µM

Quick one: IC50 for Cc1[nH]n2c(=O)cc(C(C)(C)C)nc2c1-c1ccccc1 ?
0.407 µM

Quick one: IC50 for Cc1cc(NC(=O)CSc2nc(C(C)C)nc3sc4c(c23)CCCC4)no1 ?
11.2 µM

Quick one: IC50 for O=C(Nc1ccc(-c2nc3ccccc3c(=O)o2)cc1)c1ccco1 ?
< 0.195 µM

Quick one: IC50 for CCN(CC(=O)NC(C)(C)C)C(=O)COc1c(Cl)cc(Cl)c2ccc(C)nc12 ?
3.94 µM

Quick one: IC50 for Clc1cccc2c1Sc1ccccc1CC2N1CCNCC1 (stereo unspecified) ?
3.12 µM

Quick one: IC50 for CCCCCc1cc(=O)oc2c(C(CCN3CCCCC3)c3cc(OC)c(OC)c(OC)c3)c(OC)cc(OC)c12 (stereo unspecified) ?
4.18 µM
